# ECM Score (1 µM) per entry
# System tested: extracellular matrix (ECM) proteins
# Assay summary: ECM plate ELISA (Matrigel), 1 uM antibody, A450 over wells without sample
Could you respond with only the numeric value?

Would you please look over these solved cases?
Name the recorded ECM Score (1 µM) for hz20-1 (antibody, V domains shown, light constant region not tied to this antibody) VH: QVQLVQSGAEVKKPGASVKVSCKASGYTFTNYGISWVRQAPGQGLEWMGEIYPRSGNTYHNEKFKDRVTMTRDTSTSTVYMELSSLRSEDTAVYYCARSMITTRYWYFDVWGKGTTVTVSS VL: DIVMTQSPDSLAVSLGERATINCRASESVDTYGNSFMHWYQQKPGQPPKLLIYLASNLESGVPDRFSGSGSGTDFTLTISSLQAEDVAVYYCQQNNEDPLTFGAGTKLELK .
1

hz13-2 (antibody, V domains shown, light constant region not tied to this antibody) VH: EVQLVQSGAEVKKPGASVKVSCTSSDFNIKDHFIHWVRQAPGKGLEWMGRIDPEDDETKYAPKFQDRVTMTADTSTDTAYMELSSLRSEDTAVYYCAGYGNYEGAMDYWGQGTLVTVSS VL: DIQMTQSPSSLSASVGDRVTITCRASENVNNYGIGFMNWFQQKPGKAPKLLIYAASRRGSGVPSRFSGSGSGTDFTLTISSLQPEDFATYFCQQSKEVPYTFGQGTKVEIK ?
1

How about hz13-9 (antibody, V domains shown, light constant region not tied to this antibody) VH: EVLLVQSGAEVKKPGASVKLSCTSSDFNIKDHFIHWVRQAPGKGLEWIGRIDPEDDETKYAPKFQDRVTITADTSTDTAYLELSSLRSEDTAVFYCAGYGNYEGAMDYWGQGTLVTVSS VL: DIVMTQSPSSLSASVGDRVTLTCRASENVNNYGIGFMNWFQQKPGKAPKLLIYAASRRGSGVPSRFSGSGSGTDFTLTISSMQPEDFATYFCQQSKEVPYTFGQGTKLEIK ?
2

Here is the next binder: hz20-11 (antibody, V domains shown, light constant region not tied to this antibody) VH: QVQLVQSGAEVAKPGASVKVSCKASGYTFTNYGISWVRQRPGQGLEWMGEIYPRSGNTYHNEKFKDRVTMTTDTSTSTAYMELRSLRSEDTAVYYCARSMITTRYWYFDVWGKGTTVTVSS VL: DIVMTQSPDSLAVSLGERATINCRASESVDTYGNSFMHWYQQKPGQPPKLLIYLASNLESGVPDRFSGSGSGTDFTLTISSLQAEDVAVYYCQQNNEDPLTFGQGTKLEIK
4

Now consider hz13-6 (antibody, V domains shown, light constant region not tied to this antibody) VH: EVLLVQSGAEVKKPGASVKLSCTSSDFNIKDHFIHWVRQAPGKGLEWMGRIDPEDDETKYAPKFQDRVTMTADTSTDTAYMELSSLRSEDTAVFYCAGYGNYEGAMDYWGQGTLVTVSS VL: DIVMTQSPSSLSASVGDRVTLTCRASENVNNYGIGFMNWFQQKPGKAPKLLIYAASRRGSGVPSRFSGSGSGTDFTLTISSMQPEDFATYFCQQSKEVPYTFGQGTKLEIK and answer again.
1

Same lookup for hz20-13 (antibody, V domains shown, light constant region not tied to this antibody) VH: QVQLVQSGAEVKKPGASVKVSCKASGYTFTNYGISWVRQRPGQGLEWMGEIYPRSGNTYHNEKFKDRVTMTTDKSTSTAYMELRSLRSEDTAVYYCARSMITTRYWYFDVWGKGTTVTVSS VL: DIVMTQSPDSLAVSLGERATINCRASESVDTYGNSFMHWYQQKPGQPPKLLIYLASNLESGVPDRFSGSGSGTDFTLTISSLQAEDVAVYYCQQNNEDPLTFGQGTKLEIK , please.
19

Others:
Requested read-out: ECM Score (1 µM). Entry: hz20-10 (antibody, V domains shown, light constant region not tied to this antibody) VH: QVQLVQSGAEVKKPGASVKVSCKASGYTFTNYGISWVRQAPGQGLEWMGEIYPRSGNTYHNEKFKDRVTMTTDKSTSTAYMELRSLRSDDTAVYYCARSMITTRYWYFDVWGKGTTVTVSS VL: DIVMTQSPDSLAVSLGERATINCRASESVDTYGNSFMHWYQQKPGQPPKLLIYLASNLESGVPDRFSGSGSGTDFTLTIDSLQAEDVAVYYCQQNNEDPLTFGQGTKLEIK
18

For hz13-4 (antibody, V domains shown, light constant region not tied to this antibody) VH: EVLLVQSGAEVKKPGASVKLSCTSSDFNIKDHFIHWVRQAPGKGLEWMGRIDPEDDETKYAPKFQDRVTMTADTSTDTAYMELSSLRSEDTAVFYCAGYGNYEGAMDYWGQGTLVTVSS VL: DIQMTQSPSSLSASVGDRVTITCRASENVNNYGIGFMNWYQQKPGKAPKLLIYAASRRGSGVPSRFSGSGSGTDFTLTISSLQPEDFATYYCQQSKEVPYTFGQGTKVEIK then?
1

Note, next up: hz20-14 (antibody, V domains shown, light constant region not tied to this antibody) VH: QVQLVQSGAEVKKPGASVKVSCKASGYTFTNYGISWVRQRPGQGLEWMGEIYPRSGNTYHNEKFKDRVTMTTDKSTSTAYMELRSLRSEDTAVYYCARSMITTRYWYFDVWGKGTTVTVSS VL: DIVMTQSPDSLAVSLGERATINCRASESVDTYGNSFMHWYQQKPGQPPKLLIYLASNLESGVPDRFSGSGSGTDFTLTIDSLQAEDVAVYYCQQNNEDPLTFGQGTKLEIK
20

Further, for hz20-4 (antibody, V domains shown, light constant region not tied to this antibody) VH: QVQLVQSGAEVKKPGASVKVSCKASGYTFTNYGISWVRQAPGQGLEWMGEIYPRSGNTYHNEKFKDRVTMTADTSTSTVYMELSSLRSEDTAVYYCARSMITTRYWYFDVWGKGTTVTVSS VL: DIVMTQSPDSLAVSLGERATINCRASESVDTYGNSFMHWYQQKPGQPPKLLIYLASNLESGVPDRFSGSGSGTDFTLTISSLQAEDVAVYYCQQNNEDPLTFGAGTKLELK ?
1
